Quick reference for slope among some compounds
target: Alpha-2C adrenergic receptor (Homo sapiens) (UniProt P18825); assay: modulators of alpha2C/GIRK thallium flux, primary screen, cell-based, HEK293 alpha2C/GIRK1/2 (AID 624); conditions: thallium flux BTC fluorescence, at 10 µM, actives lie on both sides;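 further: slope of fluorescence ratio to pre-addition baseline per second over 15 to 24 s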
Sequence (P18825 whole entry, looked up): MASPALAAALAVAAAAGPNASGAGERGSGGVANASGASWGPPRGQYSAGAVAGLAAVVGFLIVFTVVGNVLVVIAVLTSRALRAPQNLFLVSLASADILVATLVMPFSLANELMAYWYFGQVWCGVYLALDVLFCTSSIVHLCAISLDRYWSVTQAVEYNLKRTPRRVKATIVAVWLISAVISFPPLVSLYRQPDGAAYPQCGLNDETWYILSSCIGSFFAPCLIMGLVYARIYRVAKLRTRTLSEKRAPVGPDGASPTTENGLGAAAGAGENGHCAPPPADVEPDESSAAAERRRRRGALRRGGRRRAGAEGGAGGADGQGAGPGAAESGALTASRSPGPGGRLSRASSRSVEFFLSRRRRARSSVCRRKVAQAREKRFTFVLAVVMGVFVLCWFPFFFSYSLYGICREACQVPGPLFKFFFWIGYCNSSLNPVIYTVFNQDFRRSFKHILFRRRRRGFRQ
Answer field: number only, no words.

Known slope results, listed for orientation:
# compound, testedSystem, slope
rows = [
    ("O=S(=O)(c1ccccc1)N1CCC(N2CCN(c3ccccc3)CC2)CC1", "Alpha-2C adrenergic receptor (Homo sapiens) (UniProt P18825)", 0.006),
    ("COC(=O)c1nn2c(C(F)(F)F)cc(-c3ccc(Br)o3)nc2c1Br", "Alpha-2C adrenergic receptor (Homo sapiens) (UniProt P18825)", 0.00401),
    ("c1ccc(C2=Nn3c(nnc3-c3ccccn3)SC2)cc1", "Alpha-2C adrenergic receptor (Homo sapiens) (UniProt P18825)", 0.00684),
    ("O=C(Nc1cccnc1)c1cccnc1", "Alpha-2C adrenergic receptor (Homo sapiens) (UniProt P18825)", 0.00505),
    ("COc1ccc(NC2CC(=O)N(C)C2=O)cc1 (centres undefined)", "Alpha-2C adrenergic receptor (Homo sapiens) (UniProt P18825)", 0.00509),
    ("Cc1ccc(OCC(=O)N2CCC(N3CCCCCC3)CC2)cc1", "Alpha-2C adrenergic receptor (Homo sapiens) (UniProt P18825)", 0.00447),
    ("C=CCn1c(SCc2c(F)c(F)c(F)c(F)c2F)nc(O)cc1=O", "Alpha-2C adrenergic receptor (Homo sapiens) (UniProt P18825)", 0.00491),
    ("COc1ccc(/C(O)=C2\\C(=O)C(=O)N(CCN3CCOCC3)C2c2ccccc2OC)cc1 (centres undefined)", "Alpha-2C adrenergic receptor (Homo sapiens) (UniProt P18825)", 0.00695),
]

Documented slope of CC1CCc2cc(F)cc3c(O)c(C(=O)NCc4ccco4)c(=O)n1c23 (centres undefined) : 0.00603

Documented slope of C[C@]12CC[C@H]3[C@@H](CCC4=CC(=O)CC[C@@]43C)[C@@H]1CC[C@@H]2C(=O)CO : 0.00387

Documented slope of CCCCOC(=O)Nc1ccc(S(=O)(=O)Nc2nc(C)cc(C)n2)cc1 : 0.00517

Documented slope of CCOC(=O)c1cc2c(=O)n3cccc(C)c3nc2n(C)c1=N : 0.00241

* * *

target: Dual specificity protein phosphatase 6 (Homo sapiens); experiment: DUSP6 inhibitors restoring Erk phosphorylation by chemical complementation, primary imaging in DUSP6-transfected HeLa (AID 609); details: HeLa MKP-3 transfected, phospho-Erk imaging KS statistic; at 10 µM; stronger effect = higher value; cells stimulated with TPA for 15 min;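 on inhibition: phospho-Erk level distribution per well compared with pooled transfected vehicle control wells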
measurementKind: inhibition (%)
Expressed in %, but write only the number.

Known inhibition results, listed for orientation:
# compound, measurementKind, value
rows = [
    ("COc1ccc(OC)c(C2C(C#N)=C(N)Oc3cc(C)[nH]c(=O)c32)c1 (configuration not stated)", "inhibition", -7.86),
    ("COc1cc(-c2nn3c(-c4cccnc4)nnc3s2)cc(OC)c1OC", "inhibition", 15.5),
    ("CCOC(=O)c1c(C)n(C)c2ccc(OC)c(NC(=O)CN3CCCCC3)c12", "inhibition", -6.59),
]

Documented inhibition of Clc1ccc2[nH]c3c(NCCN4CCOCC4)ncnc3c2c1 : -2.47

Documented inhibition of CCOc1cccc(-c2nn3c(-c4ccccn4)nnc3s2)c1 : -9.66

Documented inhibition of CN1CCc2c(sc3ncn4nc(-c5ccccc5O)nc4c23)C1 : 9.39

Documented inhibition of c1coc(-c2nnc3sc(C4CCCCC4)nn23)c1 : 1.12

Documented inhibition of CC(C)NCC(O)COc1cccc2[nH]ccc12 (configuration not stated) : 3.45

* * *

test: DUSP6 inhibitors restoring Erk phosphorylation by chemical complementation, primary imaging in DUSP6-transfected HeLa (AID 609); conditions: HeLa MKP-3 transfected, phospho-Erk imaging KS statistic; measured here: cell density z-score; at 10 µM; cells stimulated with TPA for 15 min
Output: class label from z-score. Mapping: lower range (below -0.4), middle range (-0.4 to below 0.7), upper range (0.7 or more)

# compound, className
data = [
    ("CC(=O)c1c(C(C)=O)c(C)n(NC(=O)c2ccncc2)c1C", "upper range"),
    ("O=C(C1=C(O)C(=O)N(CCN2CCOCC2)C1c1cccnc1)c1cc2ccccc2o1 (stereo not given)", "lower range"),
    ("CC(=O)Nc1cccc(NC(=O)CSc2nc(C)c(C)c(C)c2C#N)c1", "middle range"),
]

Exercise: Place this compound in its band: CN(C)C(CN1C(=O)C2CC=CCC2C1=O)c1cn(C)c2ccccc12 (stereo not given)
Solution: lower range

Exercise: Place this compound in its band: Cn1c(=O)n(C)c2cc(C(=O)c3ccccc3)ccc21
Solution: upper range

Exercise: Place this compound in its band: Cn1nccc1C(=O)Nc1ccccc1C(=O)O
Solution: upper range

Exercise: Place this compound in its band: COC(=O)c1ccc(-c2sc3nc(N4CCOCC4)c4c(c3c2N)CC(C)(C)OC4)o1
Solution: lower range

Exercise: Place this compound in its band: C=CC(O)Cc1c(C)n[nH]c1C (stereo not given)
Solution: lower range

Exercise: Place this compound in its band: C=C(C)C1Cc2c(C)nn(-c3nc(C)cc(C)n3)c2C1 (stereo not given)
Solution: middle range

Exercise: Place this compound in its band: CNC(=O)c1ncnnc1N(C)C(=O)NCc1ccccc1
Solution: middle range

Exercise: Place this compound in its band: CCCOc1cccc(C2C(C(=O)c3ccc(C)o3)=C(O)C(=O)N2CCCN(C)C)c1 (stereo not given)
Solution: lower range

Exercise: Place this compound in its band: N#CC1=C(SCC(=O)c2ccccc2)NC2=C(C(=O)CCC2)C1c1ccco1 (stereo not given)
Solution: lower range

Exercise: Place this compound in its band: COC(=O)C1=C(N)Oc2cc(C)oc(=O)c2C1c1ccncc1 (stereo not given)
Solution: lower range

Exercise: Place this compound in its band: CC1CCN(c2oc(-c3ccccc3Cl)nc2C#N)CC1
Solution: lower range

Exercise: Place this compound in its band: CC(C)(C)c1ccc(C(O)CCCN2CCC(C(O)(c3ccccc3)c3ccccc3)CC2)cc1 (stereo not given)
Solution: upper range

Exercise: Place this compound in its band: COc1cccc(N2C(=O)C(O)=C(C(C)=O)C2c2ccc(OC)c(OC)c2)c1 (stereo not given)
Solution: lower range

Exercise: Place this compound in its band: CC(C)OC(=O)c1sc2nc3c(cc2c1N)C(=O)CCC3
Solution: upper range

Exercise: Place this compound in its band: Cn1c(SCC(=O)N2CCOCC2)nnc1-c1ccc(Cl)cc1Cl
Solution: upper range

Exercise: Place this compound in its band: Nc1c(Br)cc2oc(-c3ccccc3)nc2c1Br
Solution: middle range

Exercise: Place this compound in its band: Cc1ccc2cc(CN(C(=O)c3ccco3)c3ccccc3)c(=O)[nH]c2c1
Solution: upper range

Exercise: Place this compound in its band: COc1ccc(OCC(O)Cn2c(Nc3cccc(C)c3)nc3c2c(=O)n(C)c(=O)n3C)cc1 (stereo not given)
Solution: upper range

Exercise: Place this compound in its band: CCOc1cc(C2Nc3ccccc3C(=O)N2c2ccccc2OC)ccc1O (stereo not given)
Solution: middle range

Exercise: Place this compound in its band: Cc1occc(=O)c1OC(=O)Nc1ccccc1
Solution: middle range

* * *

assay: inhibitors of E-selectin induction by TNFa, primary screen, imaging, HUVEC, immunofluorescence, MLSMR starter and 10KST1 sets (AID 487); settings: HUVEC TNFalpha-induced E-selectin immunofluorescence imaging, at 2 µM; stronger effect = higher value;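 further: signal is fraction of cell area covered by stained E-selectin grains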
fulfilled means recorded inhibition is -90% or above; not fulfilled means it is below -90%.

# compound, className
rows = [
    ("Cc1cccc(COc2ccc(/C(O)=C3\\C(=O)C(=O)N(CCN(C)C)C3c3ccncc3)cc2)c1 (configuration not stated)", "fulfilled"),
]

Exercise: Answer whether inhibition of CC(=O)OCC(=O)[C@@]1(O)CC[C@H]2[C@@H]3CCC4=CC(=O)CC[C@]4(C)[C@H]3[C@@H](O)C[C@@]21C is greater than or equal to -90%.
Solution: not fulfilled

Exercise: Answer whether inhibition of Nc1nonc1-c1noc(N2CCOCC2)n1 is greater than or equal to -90%.
Solution: fulfilled

Exercise: Answer whether inhibition of COc1ccc(/C(O)=C2\C(=O)C(=O)N(CCN3CCOCC3)C2c2ccccc2OC)cc1 (configuration not stated) is greater than or equal to -90%.
Solution: fulfilled

Exercise: Answer whether inhibition of CC(C)OC(=O)c1nn2c(C(F)(F)F)cc(-c3ccc(Br)o3)nc2c1Br is greater than or equal to -90%.
Solution: fulfilled

Exercise: Answer whether inhibition of CCCOc1ccc(CSC(CC(=O)O)C(=O)O)cc1 (configuration not stated) is greater than or equal to -90%.
Solution: fulfilled
